Target: T1, human PD-1 (soluble analyte in SPR) (human, UniProt Q15116 25-170, limits assumed)
T1 construct: also called CD279; PDCD1
T1 sequence (Q15116 25-170 limits assumed): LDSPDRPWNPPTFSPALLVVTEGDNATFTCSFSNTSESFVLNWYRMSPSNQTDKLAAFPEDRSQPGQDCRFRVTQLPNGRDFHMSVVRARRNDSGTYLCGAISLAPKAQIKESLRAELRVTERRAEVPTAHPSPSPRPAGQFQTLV
Test: SPR (ProteOn XPR36), mAb captured on anti-human IgG Fc, human PD-1 as analyte, 25 C
pKd: −log10 of the molar value.
Tag: 1.0 if measured pKd is not below 9, 0.0 if it is.

binder | labelValue
PD1B1088 (antibody, human IgG1, kappa, V domains shown, also called VH PD1H405; VL PD1L651) VH: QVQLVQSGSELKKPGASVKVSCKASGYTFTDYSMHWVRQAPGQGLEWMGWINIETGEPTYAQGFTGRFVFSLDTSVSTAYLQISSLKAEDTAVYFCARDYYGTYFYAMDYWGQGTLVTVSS VL: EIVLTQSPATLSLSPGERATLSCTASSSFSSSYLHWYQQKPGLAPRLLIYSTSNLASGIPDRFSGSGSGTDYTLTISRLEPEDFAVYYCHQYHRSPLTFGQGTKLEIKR | 0.0
PD1B1095 (antibody, human IgG1, kappa, V domains shown, also called VH PD1H587; VL PD1L652) VH: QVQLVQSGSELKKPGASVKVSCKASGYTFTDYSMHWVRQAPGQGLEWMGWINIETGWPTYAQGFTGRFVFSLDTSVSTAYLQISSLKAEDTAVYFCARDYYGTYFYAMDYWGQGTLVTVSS VL: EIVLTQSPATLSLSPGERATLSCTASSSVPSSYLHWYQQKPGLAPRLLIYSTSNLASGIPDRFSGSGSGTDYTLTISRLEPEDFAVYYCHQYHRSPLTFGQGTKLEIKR | 1.0
PD1B1086 (antibody, human IgG1, kappa, V domains shown, also called VH PD1H586; VL PD1L469) VH: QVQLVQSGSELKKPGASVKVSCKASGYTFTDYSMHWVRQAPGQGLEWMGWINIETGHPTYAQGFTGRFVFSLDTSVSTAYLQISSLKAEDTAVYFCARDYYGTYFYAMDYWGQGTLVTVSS VL: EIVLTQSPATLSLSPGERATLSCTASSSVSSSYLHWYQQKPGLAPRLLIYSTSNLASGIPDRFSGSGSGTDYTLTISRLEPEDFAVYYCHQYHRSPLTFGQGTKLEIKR | 0.0

Request: Could you tell me if the measured pKd of PD1B1093 (antibody, human IgG1, kappa, V domains shown, also called VH PD1H585; VL PD1L652) VH: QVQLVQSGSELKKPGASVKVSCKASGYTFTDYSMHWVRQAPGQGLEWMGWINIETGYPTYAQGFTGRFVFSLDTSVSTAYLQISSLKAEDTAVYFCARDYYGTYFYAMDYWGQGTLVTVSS VL: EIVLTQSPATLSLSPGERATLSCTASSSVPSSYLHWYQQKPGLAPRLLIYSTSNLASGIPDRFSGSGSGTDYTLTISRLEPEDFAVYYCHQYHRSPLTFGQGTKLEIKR reaches 9 or more?
Response: 1.0

Request: Could you tell me if the measured pKd of PD1B1090 (antibody, human IgG1, kappa, V domains shown, also called VH PD1H585; VL PD1L651) VH: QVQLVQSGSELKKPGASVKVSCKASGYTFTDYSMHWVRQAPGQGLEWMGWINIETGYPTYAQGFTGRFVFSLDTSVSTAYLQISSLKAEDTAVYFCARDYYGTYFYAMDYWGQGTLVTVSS VL: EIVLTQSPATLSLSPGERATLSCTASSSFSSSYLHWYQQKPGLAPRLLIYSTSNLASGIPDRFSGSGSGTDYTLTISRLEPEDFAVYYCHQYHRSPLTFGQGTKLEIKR reaches 9 or more?
Response: 1.0
